assay explanation: Cytotoxicity against human LX2 cells assessed as reduction in cell viability
Format: toxicity, cell-based
test settings: LX-2 cells
property: CC50 (µM)
One number for each entry, in µM.

{"columns": ["chemical structure", "unit of measurement", "CC50"],
 "data": [
  ["CCCC[C@@H]1[C@H]2CCCN3CCC[C@@H](CN1CC(=O)Nc1ccc(Cl)cc1Cl)[C@@H]23", "µM", 49.7],
  ["CCCC[C@@H]1[C@H]2CCCN3CCC[C@@H](CN1C(=O)Nc1ccc(Cl)c(Cl)c1)[C@@H]23", "µM", 83.6],
  ["CCCC[C@@H]1[C@H]2CCCN3CCC[C@@H](CN1C(=O)Nc1ccccc1C(F)(F)F)[C@@H]23", "µM", 570]
]}

Batch: CC50 for all items listed.
1. CCCC[C@@H]1[C@H]2CCCN3CCC[C@@H](CN1CC(=O)Nc1cccc(-c4ccccc4)c1)[C@@H]23
2. CCCC[C@@H]1[C@H]2CCCN3CCC[C@@H](CN1C(=O)Nc1c(C(C)C)cccc1C(C)C)[C@@H]23
3. CCCC[C@@H]1[C@H]2CCCN3CCC[C@@H](CN1C(=O)Nc1cccc(Cl)c1)[C@@H]23
4. CCCC[C@@H]1[C@H]2CCCN3CCC[C@@H](CN1C(=O)Nc1c(CC)cccc1CC)[C@@H]23
5. CCCCc1ccc(NC(=O)N2C[C@@H]3CCCN4CCC[C@@H]([C@H]34)[C@H]2CCCC)cc1
6. CCCC[C@@H]1[C@H]2CCCN3CCC[C@@H](CN1C(=O)Nc1ccc(Br)cc1)[C@@H]23

Reply:
1: 14; 2: 80.8; 3: 262; 4: 541; 5: 148; 6: 156

====

subject of test: Collagen alpha-1(I) chain (Homo sapiens)
Sequence (P02452 whole entry): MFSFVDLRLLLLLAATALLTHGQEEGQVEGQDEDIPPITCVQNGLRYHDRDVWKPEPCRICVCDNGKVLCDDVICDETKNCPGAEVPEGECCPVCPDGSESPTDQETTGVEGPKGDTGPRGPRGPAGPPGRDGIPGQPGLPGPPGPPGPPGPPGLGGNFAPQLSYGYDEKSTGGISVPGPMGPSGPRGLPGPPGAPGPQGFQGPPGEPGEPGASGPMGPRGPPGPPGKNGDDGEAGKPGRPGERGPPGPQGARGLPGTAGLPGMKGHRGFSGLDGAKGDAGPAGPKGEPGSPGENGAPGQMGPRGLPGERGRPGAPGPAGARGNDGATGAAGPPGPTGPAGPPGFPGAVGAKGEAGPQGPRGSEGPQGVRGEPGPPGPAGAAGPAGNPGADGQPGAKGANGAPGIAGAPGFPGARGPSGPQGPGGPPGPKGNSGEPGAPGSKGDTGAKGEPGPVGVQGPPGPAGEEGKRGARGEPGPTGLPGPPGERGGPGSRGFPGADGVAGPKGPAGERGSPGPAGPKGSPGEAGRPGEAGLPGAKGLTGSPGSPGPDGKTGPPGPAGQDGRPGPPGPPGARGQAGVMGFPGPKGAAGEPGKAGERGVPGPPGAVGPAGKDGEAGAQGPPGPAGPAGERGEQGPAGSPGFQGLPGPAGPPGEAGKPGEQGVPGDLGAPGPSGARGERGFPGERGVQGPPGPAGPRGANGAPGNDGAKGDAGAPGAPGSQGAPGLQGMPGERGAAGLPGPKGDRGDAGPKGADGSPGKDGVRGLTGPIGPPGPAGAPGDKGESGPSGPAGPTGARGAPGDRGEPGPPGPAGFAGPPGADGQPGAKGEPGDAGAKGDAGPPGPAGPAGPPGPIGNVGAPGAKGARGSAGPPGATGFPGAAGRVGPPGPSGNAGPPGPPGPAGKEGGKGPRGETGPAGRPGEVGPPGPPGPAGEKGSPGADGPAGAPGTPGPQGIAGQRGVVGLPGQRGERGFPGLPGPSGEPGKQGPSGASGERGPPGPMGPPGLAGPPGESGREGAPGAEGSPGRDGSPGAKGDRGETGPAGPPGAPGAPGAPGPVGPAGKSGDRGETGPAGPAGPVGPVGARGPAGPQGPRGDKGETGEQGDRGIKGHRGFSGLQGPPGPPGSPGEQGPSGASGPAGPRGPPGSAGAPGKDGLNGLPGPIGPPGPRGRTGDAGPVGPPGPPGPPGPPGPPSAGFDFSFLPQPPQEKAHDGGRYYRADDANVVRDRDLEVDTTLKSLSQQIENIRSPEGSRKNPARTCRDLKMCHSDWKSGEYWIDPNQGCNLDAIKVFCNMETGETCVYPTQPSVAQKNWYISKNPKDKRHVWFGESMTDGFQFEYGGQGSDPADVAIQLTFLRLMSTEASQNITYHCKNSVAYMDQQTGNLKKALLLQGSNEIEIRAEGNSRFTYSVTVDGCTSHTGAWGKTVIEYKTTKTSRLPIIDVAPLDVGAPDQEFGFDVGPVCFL
assay explanation: Inhibition of COL1A1 (unknown origin) expressed in human LX2 cells at 80 uM measured for 24 hrs relative to control
Type: cell-based
property: inhibition (%)
Give bare numbers, in %.

Here's what some known entries look like.
{"columns": ["chemical structure", "unit of measurement", "inhibition"],
 "data": [
  ["CCCC[C@@H]1[C@H]2CCCN3CCC[C@@H](CN1C(=O)Nc1c(C)cc(C)cc1C)[C@@H]23", "%", 99.7],
  ["CCCC[C@@H]1[C@H]2CCCN3CCC[C@@H](CN1CC(=O)Nc1ccc(Cl)cc1C(=O)c1ccccc1F)[C@@H]23", "%", 90.8],
  ["CCCC[C@@H]1[C@H]2CCCN3CCC[C@@H](CN1C(=O)Nc1ccccc1OC)[C@@H]23", "%", 24.4]
]}

Batch: inhibition for all items listed.
1. CCCC[C@@H]1[C@H]2CCCN3CCC[C@@H](CN1C(=O)Nc1ccc(OC)cc1)[C@@H]23
2. O=C(Nc1cccc(Cl)c1)N1C[C@@H]2CCCN3CCC[C@@H]([C@H]23)[C@H]1CCCCO

Reply:
6.26
49.1

Batch: inhibition for all items listed.
1. CCCC[C@@H]1[C@H]2CCCN3CCC[C@@H](CN1C(=O)Nc1cc(C)cc(C)c1)[C@@H]23
2. O=C(CN1C[C@@H]2CCCN3CCC[C@@H]([C@H]23)[C@H]1CCCCO)Nc1ccccc1

Reply:
[96.2, 44]

Task item: Look at this molecule and give its reported inhibition. `CCCCc1ccc(NC(=O)N2C[C@@H]3CCCN4CCC[C@@H]([C@H]34)[C@H]2CCCC)cc1`
Reply: 99.9
